Source: patent US20240026024A1

Reported koff values for a set of binders
Biological target: T1, human CD73 protein (ACRO Biosystems, Cat No. CD3-H52H7) (human, UniProt P21589 27-547)
T1 construct: Bought protein; also called recombinant CD73 protein; recombinant CD73
T1 sequence: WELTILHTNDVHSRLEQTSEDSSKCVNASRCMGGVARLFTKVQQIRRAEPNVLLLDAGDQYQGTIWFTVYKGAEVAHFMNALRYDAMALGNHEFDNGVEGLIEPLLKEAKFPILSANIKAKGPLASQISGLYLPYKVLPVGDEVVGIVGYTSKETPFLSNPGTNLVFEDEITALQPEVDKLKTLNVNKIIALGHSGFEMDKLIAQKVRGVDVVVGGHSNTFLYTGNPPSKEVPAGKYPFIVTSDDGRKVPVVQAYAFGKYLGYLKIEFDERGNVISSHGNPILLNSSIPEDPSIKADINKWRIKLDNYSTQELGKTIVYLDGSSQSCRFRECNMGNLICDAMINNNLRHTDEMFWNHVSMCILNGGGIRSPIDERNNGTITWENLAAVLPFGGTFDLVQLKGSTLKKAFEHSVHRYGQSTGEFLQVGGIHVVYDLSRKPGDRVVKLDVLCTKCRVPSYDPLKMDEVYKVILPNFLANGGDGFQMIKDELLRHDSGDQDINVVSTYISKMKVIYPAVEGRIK
Assay: SPR (Biacore T200), antibody captured on protein A chip, CD73 as analyte, 1:1 model
Field: numeric (s⁻¹). Do not append units.

| BINDER | koff, s⁻¹ |
| --- | --- |
| 900695 (antibody, V domains shown, Constant regions are not restated) VH: QVQLVESGGGLVKPGGSLRLSCAASGFTFSKYAMSWVRQAPGKGLEWVAEISSGGGYINYADSVTGRFTISRDNAKNSLYLQMNSLRAEDTAVYYCARAIYYYGSSYNYYAMDYWGQGTTVTVSS VL: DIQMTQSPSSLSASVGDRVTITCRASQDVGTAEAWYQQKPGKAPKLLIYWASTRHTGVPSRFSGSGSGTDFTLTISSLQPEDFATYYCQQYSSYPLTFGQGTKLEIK | 6.03e-05 |
| 900694 (antibody, V domains shown, Constant regions are not restated; it was detected with anti-human Fc and captured on protein A) VH: EVQLVESGGGLVKPGGSLRLSCAASGFTFSKYAMSWVRQAPGKGLEWVAEISSGGGYINYPDTVTGRFTISRDNAKNSLYLQMNSLRAEDTAVYYCARAIYYYGSSYNYYAMDYWGQGTTVTVSS VL: DIQMTQSPSSLSASVGDRVTITCRASQDVGTAEAWYQQKPGKAPKLLIYWASTRHTGVPDRFSGSGSGTDFTLTISSLQPEDFATYYCQQYSSYPLTFGQGTKLEIK | 0.000493 |
| 900696 (antibody, V domains shown, Constant regions are not restated) VH: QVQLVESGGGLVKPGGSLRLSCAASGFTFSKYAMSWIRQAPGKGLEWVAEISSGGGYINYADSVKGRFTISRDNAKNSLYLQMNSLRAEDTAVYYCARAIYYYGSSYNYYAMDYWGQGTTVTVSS VL: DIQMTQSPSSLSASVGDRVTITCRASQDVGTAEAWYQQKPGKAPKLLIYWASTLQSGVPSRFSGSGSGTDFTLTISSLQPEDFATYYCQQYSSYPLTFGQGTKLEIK | 0.000928 |

For the binder shown here, 900698 (antibody, V domains shown, Constant regions are not restated) VH: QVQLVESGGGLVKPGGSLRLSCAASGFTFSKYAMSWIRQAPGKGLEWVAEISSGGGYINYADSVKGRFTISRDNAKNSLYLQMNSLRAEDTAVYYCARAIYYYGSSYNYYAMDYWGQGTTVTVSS VL: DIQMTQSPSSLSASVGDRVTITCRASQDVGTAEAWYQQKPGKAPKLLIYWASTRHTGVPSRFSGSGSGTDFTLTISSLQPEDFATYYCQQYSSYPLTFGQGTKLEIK , give the reported koff.
0.00106

For the binder shown here, 900697 (antibody, V domains shown, Constant regions are not restated) VH: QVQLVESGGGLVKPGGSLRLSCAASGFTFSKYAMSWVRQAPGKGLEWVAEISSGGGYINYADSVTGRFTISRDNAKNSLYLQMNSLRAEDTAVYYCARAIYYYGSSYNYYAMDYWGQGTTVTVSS VL: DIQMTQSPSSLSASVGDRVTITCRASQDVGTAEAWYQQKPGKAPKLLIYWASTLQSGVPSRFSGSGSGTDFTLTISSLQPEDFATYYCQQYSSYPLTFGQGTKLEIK , give the reported koff.
0.000492

For the binder shown here, 900581 (antibody, human IgG1, V domains shown) VH: EVQLVESGGGLVKPGGSLKLSCAASGFTFSKYAMSWVRQSPEKRLEWVAEISSGGGYINYPDTVTGRFTISRDNAKNTLYLEMSSLRSGDTAMYYCARAIYYYGSSYNYYAMDYWGQGTSVTVSS VL: DIVMTQSHKFMSTSVGDRVSITCKASQDVGTAEAWYQQKPGQSPKLLIYWASTRHTGVPDRFTGSGSGTDFTLTIGNVQSEDLADYFCQQYSSYPLTFGGGTKLEIK , give the reported koff.
0.000439
